All figures here come from patent US8143288B2.

- Tested on: HCV 1b-377-neo replicon cells
- assay_overview: HCV replicon FRET assay
- Format: cell-based
- condition_label: Hepatitis C virus; HCV replicon; read-out: Activity (EC50)
parameter: EC50

Example cases with answers are listed next.
NCCCCC(N)C(=O)N1CCC[C@H]1C(=O)Nc1ccc(/C=C/c2ccc(NC(=O)[C@@H]3CCCN3C(=O)Cc3ccccc3)cc2)cc1 (stereo partly drawn) [Example 273] = 1000 to 10000 nM
O=C(Nc1ccc(/C=C/c2ccc(NC(=O)[C@@H]3C[C@H](O)CN3C(=O)OCc3ccccc3)cc2)cc1)[C@@H]1C[C@H](O)CN1C(=O)OCc1ccccc1 [Example 7] = 0.1 to 90 nM

Incoming: Dear colleague, I am looking for the recorded EC50 of the following molecule: CCc1cc(Br)ccc1S(=O)(=O)N1CCC[C@H]1C(=O)Nc1ccc(/C=C/c2ccc(NC(=O)[C@@H]3CCCN3S(=O)(=O)c3ccc(Br)cc3CC)cc2)cc1 [Example 278]
Outgoing: 1000 to 10000 nM
